Where do the numbers come from? From patent US9732094B2.

# target.or.test.system: DNA-PK phosphorylation at serine 2056 (Homo sapiens (Human), UniProt P78527)
# method: DNA-PK phosphorylation at serine 2056 (cellular), bleomycin-treated HCT116 cells, ELISA
# Assay type: cell-based
# condition.set: cellular DNA-PK phosphorylation at serine 2056, HCT116; read-out: IC50 pDNA-PK
# Protocol: HCT116 cells were cultivated at 37° C. and 10% CO2 in MEM alpha medium with 10% of foetal calf serum and 2 mM glutamine. The cells were detached from the base of the culture vessels with the aid of trypsin/EDTA, centrifuged off in centrifuge tubes, taken up in fresh medium, and the cell density was determined. […] The development of the enzymatic reaction was carried out with the aid of a chemiluminescent reagent, the chemiluminescence was measured with the aid of a Mithras LB940. […]
pIC50: −log10 of the molar value.
measure: pIC50

(Q) Requested read-out: pIC50. Entry: OC(c1ccc(F)c(-c2ncnc3cc(N4CCOCC4)ccc23)c1)c1ncnc2c1CCNC2 (stereo not drawn) [Example 388]
(A) 5.30 to 6.30

(Q) Requested read-out: pIC50. Entry: COc1ccc(C(C(N)=O)c2cc(-c3ncnc4cc(N5CCOCC5)ccc34)ccc2Cl)nn1 (stereo not drawn) [Example 310]
(A) 4.52 to 5.00

(Q) Requested read-out: pIC50. Entry: COc1ccc(C(O)c2ccc(F)c(-c3ncnc4cc(N5CCOCC5)cc(F)c34)c2)nn1 (stereo not drawn) [Example 255]
(A) > 6.30

(Q) Requested read-out: pIC50. Entry: NC(=O)C(c1cncc(Cl)c1)c1ccc(F)c(-c2ncnc3cc(N4CCOCC4)ccc23)c1 (stereo not drawn) [Example 297]
(A) 4.52 to 5.00

(Q) Requested read-out: pIC50. Entry: Cc1nccnc1C(O)c1ccc(F)c(-c2ncnc3cc(N4CCOCC4)cnc23)c1 (stereo not drawn) [Example 237]
(A) > 6.30

(Q) Requested read-out: pIC50. Entry: Cc1cncnc1C(O)c1cc(-c2ncnc3cc(N4CCOCC4)ccc23)ccc1Cl (stereo not drawn) [Example 419]
(A) 5.30 to 6.30

(Q) Requested read-out: pIC50. Entry: Cc1cc(C(O)c2cc(-c3ncnc4cc(N5CCOCC5)ccc34)c(F)cc2Cl)n(C)c(=O)c1 (stereo not drawn) [Example 339]
(A) 5.30 to 6.30

(Q) Requested read-out: pIC50. Entry: Cn1c(C(O)c2cc(-c3ncnc4cc(N5CCOCC5)ccc34)ccc2Cl)cccc1=O (single isomer, unassigned) [Example 364]
(A) > 6.30

(Q) Requested read-out: pIC50. Entry: Cn1nc(C(C(N)=O)c2cc(-c3ncnc4cc(N5CCOCC5)ccc34)c(F)cc2Cl)ccc1=O (stereo not drawn) [Example 311]
(A) 4.52 to 5.00

(Q) Requested read-out: pIC50. Entry: CNC(=O)C(c1cc(-c2ncnc3cc(N4CCOCC4)ccc23)c(F)cc1Cl)c1nccnc1OC (stereo not drawn) [Example 229]
(A) 5.30 to 6.30

(Q) Requested read-out: pIC50. Entry: Cc1nccnc1C(O)c1ccc(F)c(-c2ncnc3cc(N4CCOCC4)sc23)c1 (stereo not drawn) [Example 245]
(A) > 6.30

(Q) Requested read-out: pIC50. Entry: COc1cnc(C(O)c2ccc(F)c(-c3ncnc4cc(N5CCOCC5)ccc34)c2)c(Br)c1 (stereo not drawn) [Example 473]
(A) > 6.30

(Q) Requested read-out: pIC50. Entry: COc1ccc(C(O)c2cc(-c3ncnc4cc(N5CCOCC5)cc(F)c34)c(F)cc2Cl)nn1 (single isomer, unassigned) [Example 263]
(A) 4.52 to 5.00

(Q) Requested read-out: pIC50. Entry: NC(=O)C(c1cccnc1)c1cc(-c2ncnc3cc(N4CCOCC4)ccc23)c(F)cc1F (stereo not drawn) [Example 294]
(A) 4.52 to 5.00

(Q) Requested read-out: pIC50. Entry: OC(c1ccc(F)c(-c2ncnc3cc(N4CCOCC4)ccc23)c1)c1ncccc1Cl (stereo not drawn) [Example 466]
(A) 5.30 to 6.30

(Q) Requested read-out: pIC50. Entry: COc1ccc(C(O)c2cc(-c3ncnc4cc(N5CCOCC5)ccc34)ccc2Cl)nn1 (stereo not drawn) [Example 459]
(A) 5.30 to 6.30

(Q) Requested read-out: pIC50. Entry: COc1ccc(C(O)c2cc(-c3ncnc4cc(N5CCOCC5)cc(F)c34)c(F)cc2Cl)nn1 (single isomer, unassigned) [Example 271]
(A) > 6.30

(Q) Requested read-out: pIC50. Entry: Cn1cnc2ncnc([C@H](O)c3cc(-c4ncnc5cc(N6CCOCC6)ccc45)c(F)cc3F)c21 [Example 384]
(A) 4.52 to 5.00

(Q) Requested read-out: pIC50. Entry: COc1nccnc1C(C(N)=O)c1ccc(F)c(-c2ncnc3cc(N4CCOCC4)ccc23)c1 (stereo not drawn) [Example 305]
(A) 5.00 to 5.30

(Q) Requested read-out: pIC50. Entry: Cn1c(C(O)c2cc(-c3ncnc4cc(N5CCOCC5)ccc34)c(F)cc2Cl)cccc1=O (stereo not drawn) [Example 435]
(A) > 6.30

(Q) Requested read-out: pIC50. Entry: NC(=O)C(c1ccc(F)c(-c2ncnc3cc(N4CCOCC4)ccc23)c1)c1nnc(Cl)c2ccsc12 (stereo not drawn) [Example 290]
(A) 5.00 to 5.30

(Q) Requested read-out: pIC50. Entry: Cn1cnc2c(C(O)c3ccc(F)c(-c4ncnc5cc(N6CCOCC6)ccc45)c3)ncnc21 (stereo not drawn) [Example 420]
(A) 5.00 to 5.30

(Q) Requested read-out: pIC50. Entry: NC(=O)c1cncc(C(C(N)=O)c2ccc(F)c(-c3ncnc4cc(N5CCOCC5)ccc34)c2)n1 (stereo not drawn) [Example 292]
(A) 4.52 to 5.00

(Q) Requested read-out: pIC50. Entry: [2H]C1([2H])OC([2H])([2H])C([2H])([2H])N(c2ccc3c(-c4cc(C(O)c5nccnc5C)ccc4F)ncnc3c2)C1([2H])[2H] (stereo not drawn) [Example 238]
(A) > 6.30

(Q) Requested read-out: pIC50. Entry: Cc1nccnc1C(O)c1cc(-c2ncnc3cc(N4CCOCC4)ccc23)ccc1Cl (stereo not drawn) [Example 426]
(A) 5.30 to 6.30

(Q) Requested read-out: pIC50. Entry: Cn1cnc2ncnc(C(O)c3cc(-c4ncnc5cc(N6CCOCC6)ccc45)c(F)cc3F)c21 (stereo not drawn) [Example 431]
(A) 5.30 to 6.30

(Q) Requested read-out: pIC50. Entry: Cc1cc(C(C(N)=O)c2cc(-c3ncnc4cc(N5CCOCC5)ccc34)c(F)cc2Cl)n(C)c(=O)c1 (stereo not drawn) [Example 334]
(A) 4.52 to 5.00

(Q) Requested read-out: pIC50. Entry: COc1ccc(C(O)c2cc(-c3ncnc4cc(N5CCOCC5)cnc34)c(F)cc2Cl)nn1 (stereo not drawn) [Example 227]
(A) 5.30 to 6.30

(Q) Requested read-out: pIC50. Entry: OC(c1ccc(F)c(-c2ncnc3cc(N4CCOCC4)ccc23)c1)c1ncnc2sccc12 (stereo not drawn) [Example 437]
(A) > 6.30

(Q) Requested read-out: pIC50. Entry: Oc1ncnc(C(O)c2cc(-c3ncnc4cc(N5CCOCC5)ccc34)ccc2Cl)c1Cl (stereo not drawn) [Example 330]
(A) 4.52 to 5.00
